Data provenance: the DeepSol protein solubility set

experimental-protocol: soluble on expression in E. coli; label from the status in PepcDB or PDB records
quantity: soluble on expression in E. coli

{"sequence-code": "MATQGAWLRMTSSAKSMTKSTVTSKELGFLTSQLSGLRISYTPSDVINRISLPSFPGIQPIVARRICPFTGKKANRANKVSFSNHKTKKLQFVNLQYKRVWWEAGKRFVKLRLSTKALKTIEKNGLDAVAKKAGIDLRKKLEHHHHHH", "quantity": "soluble on expression in E. coli", "observed-measurement": "not soluble"}
{"sequence-code": "MTTDSLSQIDTDQDEYGEEIEMASNSLGNLPDVVLQHLAPFLQWSTCRALSEVNLRFRSHFKQHLKEGQALSIKGQVSVGVGDRVNDCQNVSFLSEFYTIRVEMDDNMVVDWTLKLQSGVRTVVHRHYDGNTQTTTTKSVHLSSRDYLEKVLKWILARYQFKKIHLGVQGLAPLFSSYKGEIENVGISDEIEYLKLAEKFRPKHLTLFKPAQNTYNKGFFDLKKFPQLEELRMYGVPLDLDQLIESNISEVAADTIDKDIKLKHVRKIINNWKNGIINYKSIMISPSCSQFGIYCPHNQWSELTDHLVEANALYDNVVNIKEKIGSARYSPRSFEFEVWEADRY", "quantity": "soluble on expression in E. coli", "observed-measurement": "not soluble"}
{"sequence-code": "MKNFMKYLEVSKEVKEALENNKPVVALESTIISHGMPFPQNYETALKVEKVIREAGAIPATIAILDGKLKVGLSAEEIEFLGKEGSKIIKVSRRDLPYIVANKLNGATTVATTMIVAEMAGVKVFATGGIGGVHRGAETTMDISADLEELSNTNVAVICAGAKSILDLGLTLEYLETHGVPVLGYQTKKLPAFFTRESEFDLDYKIDTPKELADIITAKWEMGLNGGVVIANPIPVEYSMDYDEISKSIEEAVKEAEAKGIKGKESTPFLLAKIKEITKGKSLEANIQLVYNNAKLASEIAGNMK", "quantity": "soluble on expression in E. coli", "observed-measurement": "not soluble"}

* * *

experimental-protocol: soluble on expression in E. coli; label from the status in PepcDB or PDB records
quantity: soluble on expression in E. coli

{"sequence-code": "MKPSIFRQALCVSAAAVLTTVSHSLTTPTAHAQGGTPGLMEFRWDSDRNYRKLYYFQTSSIENDRSEWYLHLRAKDRKTSIMKLTVTVPDYFDAKLRPERMTLCRTSSGSMTKRTRCLEEVPATIEVNKTQTAIEVYPDTPVPVEGDYSLRIKLFNPQGKRMYQLNALIQAPGDVPMSGYVGSWLIDMD", "observed-measurement": "not soluble"}
{"sequence-code": "MGHHHHHHSHMTDDKDVLRDVWFGRIPTCFTLYQDEITEREAEPYYLLLPRVSYLTLVTDKVKKHFQKVMRQEDISEIWFEYEGTPLKWHYPIGLLFDLLASSSALPWNITVHFKSFPEKDLLHCPSKDAIEAHFMSCMKEADALKHKSQVINEMQKKDHKQLWMGLQNDRFDQFWAINRKLMEYPAEENGFRYIPFRIYQTTTERPFIQKLFRPVAADGQLHTLGDLLKEVCPSAIDPEDGEKKNQVMIHGIEPMLETPLQWLSEHLSYPDNFLHISIIPQPTD", "observed-measurement": "not soluble"}

* * *

experimental-protocol: soluble on expression in E. coli; label from the status in PepcDB or PDB records
quantity: soluble on expression in E. coli

{"sequence-code": "MSLADLTSLSIEHLRSPRLYTHRLILRPWLVQDRARFAELNADPLVMEFFPSCLDRAQSDALLRRIDAHFAEHGFGWWALQVKGGDPFIGYVGLEVVDFDAPFVPAVAIGWRLAAEHWAEGFAHEAAEAALSYAFDTLGLDQVVAFTVPANENSLGLMERLGMHRDPTDDFEHPDLPPGHRLRHHVLYRLTREDWLRREGGSHHHHHH", "quantity": "soluble on expression in E. coli", "observed-measurement": "soluble"}
{"sequence-code": "MGSDKIHHHHHHMWENFLFSVDRKETTMSMRLLARKMLFMRGASWQHPVIRLGLTALDPVDAIIRSATGLRSLPRYSTRVRSNGLSNQFGGGKFARQGRVILHMLQRHCALSPKSRVLEIGCGCGRTAVQLASFLEAEKYVGMDIEMVSLEACRDNPHLKRRGFKFDLIDIQNNEYNPKGRFRADEYRFSYLDGSMDCVFLISVFTHMLPEDVSNYVTEIGRMLDRGGMCLFSTFLIDHGRGGRGLNFAHDGNGFSYYDVRMPEIAVAYPQRFFEDSFGRAGLVLHEVKLGSWRDDGRGSYPEFGQDVLVFKKAA", "quantity": "soluble on expression in E. coli", "observed-measurement": "not soluble"}
{"sequence-code": "MTKQDQLIVEKMEQTYEAFSPKLANLIEALDAFKEHYEEYATLRNFYSSDEWFRLANQPWDDIPCGVLSEDLLFDMIGDHNQLLADILDLAPIMYKHM", "quantity": "soluble on expression in E. coli", "observed-measurement": "not soluble"}
{"sequence-code": "MGHHHHHHSHMSLKGKRIGFGFTGSHCTYEEVMPHLEKLIAEGAEVRPVVSYTVQSTNTRFGEGAEWIKKIEEITGFKAINSIVGAEPLGPKIPLDCMVIAPLTGNSMSKFANAMTDSPVLMAAKATLRNGKPVVLAVSTNDALGLNGVNLMRLMATKNIYFVPFGQDAPEKKPNSMVARMELLEDTVLEALQGKQLQPVVVEKFRYMN", "quantity": "soluble on expression in E. coli", "observed-measurement": "soluble"}
{"sequence-code": "MGKEVMGKKENEMAQEKERPAGSQSLFRGLMLIEILSNYPNGCPLAHLSELAGLNKSTVHRLLQGLQSCGYVTTAPAAGSYRLTTKFIAVGQKALSSLNIIHIAAPHLEALNIATGETINFSSREDDHAILIYKLEPTTGMLRTRAYIGQHMPLYCSAMGKIYMAFGHPDYVKSYWESHQHEIQPLTRNTITELPAMFDELAHIRESGAAMDREENELGVSCIAVPVFDIHGRVPYAVSISLSTSRLKQVGEKNLLKPLRETAQAISNELGFTVRDDLGAIT", "quantity": "soluble on expression in E. coli", "observed-measurement": "soluble"}
{"sequence-code": "MSLNAPRIIGVIVPDIVTHFFASILNGIENMAIDNGYFVIITTSHESFEHEKRNIENLVNMRVEGIIACLSQETTDFSHFAALKEINMPLILFDRVCLTDQFSSVIADGAQSAQMATQHLLDNGSKRVAFIGGANHLDIVKRRKHGYLEALRDNRIPIEKELVVCRKIDYEEGQIATETLLSLPQPPDAILAMNDTLAFAAMEVIKRHGLRIPDDIAIIGYTDEQHANYVEPKLSAVSHQTYKMGETACQLLIDQIKGDRTVKQVVIPTHLQIRESSIEGHHHHHH", "quantity": "soluble on expression in E. coli", "observed-measurement": "soluble"}
{"sequence-code": "MLGTIKPNYWIRKLSTKTSYGYRIDARAYVKVVRKTYHFLWKDSEEIVIFNPNADVGGLLYIGGLEHHHHHH", "quantity": "soluble on expression in E. coli", "observed-measurement": "not soluble"}
{"sequence-code": "MGSDKIHHHHHHMKAVILAAGRGSRLQALTDERPKALVPFNGVPLLQRAIETLRRCDVSEVGIVAGYRSEMLAPFADTLFYNHRWHSSGIFSSLNCASDWLSAEPCLVSYGDIFYDSTLVSELINHPADIVLGYDPAAVRLWQQRFNDPLPDLENFRLVDGWVSAIGQTATSLEVIQGQYMGLFKVTPAGWQALKKQLQGLTPQARDQTDMTSLLGTLVSEGFPVAGVATHAPWGEIDCPSDVALYERIYPDR", "quantity": "soluble on expression in E. coli", "observed-measurement": "not soluble"}
{"sequence-code": "MTARDYIWNADGEVGGINDKLRGCLVFSYDRSGWLTSRTGQMYDHDHYYYDKAGNLLTDEYQGAVMDNRLPGYGRDRYRYNEWGELTERRDQQLEWNAQGQLTRVISSNSETRYQYDALGRRISKATSNLHTDRGERSRTTFVWEGFRLLQETTWQGKRTYLYDAEQPYTPVAAITGRGESQKIWYYHTDLTGTVHEVTAPDGTLVWAGYQAGFGENRGDISNSGAYFEQPQRLPGQYFDEETGLHYNLFRYYAPECGRFVSQDPIGLNGGLNLYAYAPNPLGWIDPLGLNSLGIDSNNIFRGDGNYKGGGIGQPKSGTISAQDIIDHLLEHHHHHH", "quantity": "soluble on expression in E. coli", "observed-measurement": "not soluble"}
{"sequence-code": "MKFKQIILAGAVLATSTFTSLTNAQAETGFRDVPSDHWSYNAIMGLKEKNIVAGYGNGMFGFGDNITRGQVARLIYAYLKPADEHNAPNPFTDVKGHMFEKEILSLSKAGIMNGFGDGKFGPDNVLTREQLAVVLTKAFNFKATSTTTFKDVDKNYWATNAISALQENKIAAGTGDNLFEPKNIVTREQYAQFLYNAMNTVEVKPELTPFGIPSSMITNDFYYNSNNWKNASPVLKKSVSNEAQNLITKINKKYNEDYKYESASVSSMGLPESVQLRTSNPNLGRVYDLGQGQFFVQGENEHDFYIMFIIDNATVELAKSWITLINSDLNLDKEINDVIAMPSQKARGRDYHTYLDKGKYQIELGTSPQTKGYDSLFIGIKRK", "quantity": "soluble on expression in E. coli", "observed-measurement": "not soluble"}
{"sequence-code": "MGSDKIHHHHHHMNITSKLNQIIQECLVNRDSDLFIMPRFDKYQLLYRDAGGYRKSALIDRDEAEQIMMYIKYRADMGISERRRPQSGAMTWLNRQGELVNLRISTVGDFLDRPSMVIRFIYVLKQDEHILDSESMEKIQLATKLRGLMVFSGPMGSGKTTLIYEVARKLSETKMVMSIEDPVEIREHNFLQLQVNEKSGMSYQELLKNGLRNRPDVFIIGEIRDGKTAEIAIQAALSGHLVLTTVHSKSTQGVWNRIVELGVREEHLKEALTAVIYQRMIPAKVGDLKIMAEIKSFHPALKGTKKKWRERLEEWKESGQITKEVFEDFQYG", "quantity": "soluble on expression in E. coli", "observed-measurement": "not soluble"}
{"sequence-code": "MSLIVTAYTQEGIVIGADSCITTNFTQEGKELYKHSHCGNKLFLLNKKIGISTCGDAIINGILLSSLIDQYIWSKKEENITLLQVEIDLKNIVNNQAKGKEYYVIFHICGYENGKRYVSKFDNNDKESHIKDVSERDGCIYDGQVDIVDLFSQDVAYRGTDGLYYDINIERCRYNELSLQETIEYVYFLISTTIQHMRFTYKKDNVGFPIDILVIMPNESLWLQKKELHIPGNY", "quantity": "soluble on expression in E. coli", "observed-measurement": "not soluble"}
